Values compiled from paper PMC8225519.

Assay: Population pharmacokinetic model, oxypurinol
Format: in vivo, human
Conditions: human, in vivo, oral; read-out: Central volume of distribution
From the text: CL = CLTYP * (1 + log(1+k*DOSE_[…])) Where CLTYP is typical value of clearance and k is a coefficient for verinurad dose (1/mg).
endpoint: Vd
Remember to follow the number with its unit.

Reported Vd for "O=c1[nH]c(=O)c2c[nH]nc2[nH]1" was 45.7 L
